# Procedure summary: Concentrations of DCDQ and DCDQ carbamoyl glucuronide (M6) in human plasma, LC/SRM (Table 34)
# Assay type: in vivo, healthy human subjects
# Test settings: human, plasma, oral, 200 mg, plasma, 200 mg (fasted), 12 hr, Mean ± S.D.; read-out: DCDQ concentration in plasma
Metric name: concentration at 12 h
Give the number first and the unit second.

Exam item: Reported concentration at 12 h for c1cc2c3c(c1)[C@H]1CCC[C@H]1CN3CCNC2 [DCDQ, reference compound] : what is it?
Marked response: 5.6 ng/mL

* * *

Quick reference: Chromatographic distribution of radioactivity in male rat urine of the listed items.
# Procedure summary: Rat urinary excretion and metabolite profiles after single oral 5 mg/kg [14C]DCDQ
# Format: in vivo, Sprague-Dawley rats
# Test settings: 8-24 hr, oral 5 mg/kg, mean n = 3
# Description: At sacrifice, blood samples were collected by cardiac puncture into tubes containing EDTA as the anticoagulant and placing them on ice. Aliquots of 50 μL were removed for combustion and determination of radioactivity content. […] The biological specimens and aliquots of the dosing solution at pre- and post-dose were stored at approximately −70° C. until analyzed. Plasma (20 μL) and urine (50 μL) aliquots were analyzed for radioactivity concentrations. […]
API: value field is a number in %; no unit string.

// below: answered compounds
[[record]]
compound = "c1cc2c3c(c1)[C@H]1CCC[C@H]1CN3CCNC2 [DCDQ, reference compound]"
experimental_result = 1.46

[[record]]
compound = "O=C1CC[C@@H]2c3cccc4c3N(CCNC4)C[C@H]12 [Metabolite M7, 17-keto DCDQ]"
experimental_result = 10.1

[[record]]
compound = "OC1CNCc2cccc3c2N1C[C@@H]1CCC[C@H]31 (some centres unmarked) [Metabolite M10, hydroxy DCDQ]"
experimental_result = 2.70

[[record]]
compound = "OC1[C@@H]2CCC[C@@H]2c2cccc3c2N1CCNC3 (some centres unmarked) [Metabolite M2, hydroxy DCDQ]"
experimental_result = 5.83


Exam item: Given OC1CN2C[C@@H]3CCC[C@@H]3c3cccc(c32)CN1 (some centres unmarked) [Metabolite M1, hydroxy DCDQ] , state its recorded Chromatographic distribution of radioactivity in male rat urine.
Marked response: 22.5

* * *

# Procedure summary: Concentrations of DCDQ and DCDQ carbamoyl glucuronide (M6) in human plasma, LC/SRM (Table 34)
# Assay type: in vivo, healthy human subjects
# Test settings: human, plasma, oral, 500 mg, plasma, 500 mg (fasted), 24 hr, individual subjects; read-out: DCDQ concentration in plasma
Metric name: concentration at 24 h (ng/mL)
Respond with the bare value in ng/mL.

Exam item: Data request, read-out concentration at 24 h, for c1cc2c3c(c1)[C@H]1CCC[C@H]1CN3CCNC2 [DCDQ, reference compound]
Marked response: 5.53

* * *

# Procedure summary: Concentrations of DCDQ and DCDQ carbamoyl glucuronide (M6) in human plasma, LC/SRM (Table 34)
# Type: in vivo, healthy human subjects
# Test settings: human, plasma, oral, 200 mg, plasma, 200 mg (fasted), 6 hr, Mean ± S.D.; read-out: M6 concentration in plasma
Metric name: concentration at 6 h (ng/mL)
Unit ng/mL implied. Number only.

Exam item: Give the measured concentration at 6 h of O=C(O)[C@H]1O[C@@H](OC(=O)N2CCN3C[C@@H]4CCC[C@@H]4c4cccc(c43)C2)[C@H](O)[C@@H](O)[C@@H]1O [Metabolite M6, carbamoyl glucuronide of DCDQ] .
Marked response: 352
